# targetUnderTest: Nuclear receptor ROR-gamma (Mus musculus) (UniProt P51450)
# Sequence (P51450 whole entry, looked up): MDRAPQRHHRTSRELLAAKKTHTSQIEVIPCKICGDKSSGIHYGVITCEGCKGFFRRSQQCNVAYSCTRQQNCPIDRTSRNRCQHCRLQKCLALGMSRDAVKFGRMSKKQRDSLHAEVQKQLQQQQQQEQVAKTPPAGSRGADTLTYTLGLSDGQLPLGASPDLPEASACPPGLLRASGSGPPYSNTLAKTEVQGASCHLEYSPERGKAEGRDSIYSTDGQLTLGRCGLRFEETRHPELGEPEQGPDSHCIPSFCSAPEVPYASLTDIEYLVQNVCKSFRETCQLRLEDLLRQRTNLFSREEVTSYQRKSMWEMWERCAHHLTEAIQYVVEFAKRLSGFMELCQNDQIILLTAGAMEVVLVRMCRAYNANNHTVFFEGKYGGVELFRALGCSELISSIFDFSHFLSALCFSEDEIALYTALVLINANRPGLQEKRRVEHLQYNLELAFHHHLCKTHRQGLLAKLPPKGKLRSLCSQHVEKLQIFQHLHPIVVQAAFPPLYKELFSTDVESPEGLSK
# protocol: qHTS for inhibitors of ROR gamma transcriptional activity; note: nearly all actives have a fitted effect of over 60% in size
# measurementParameters: Drosophila S2 Gal4-RORgamma UAS-luciferase reporter, 20 h; series mostly up to 53.6 µM
Out of some 310,000 compounds screened, about 17,000 (5.5%) were called active. Inconclusive results (about 11%) are left out. Calls come from the whole dose curve; as a rule, active = well fitted inhibition curve with a large enough effect; inconclusive = small, poorly fitted or top-dose-only effect, or effect the other way; inactive = no such curve, though single readings can be large or run the other way. The list comes from a sample in which actives are over-represented; it also holds close analogues and randomly drawn compounds.
Reply using exactly one outcome from active, inactive

Examples from the recorded data:
| compound | classAssignment |
| --- | --- |
| CN(Cc1ccc2nsnc2c1)Cc1nc(Cc2cccc(F)c2)no1 | inactive |
| CCOC(=O)N1CCN(C(=O)c2cn(C)c3ccc(S(=O)(=O)N(CC)CC)cc3c2=O)CC1 | inactive |
| CCc1cc(-c2n[nH]c(=S)n2CC(C)C)cs1 | active |
| CCc1ccc(NC2Nc3cc(C)nn3S2)cc1 (stereo unspecified) | active |
| CCc1ccc(CN(C)Cc2nc(Cc3ccccc3)no2)nc1 | active |
| COCCN1C(=O)C(=O)/C(=C(/O)c2ccc(S(=O)(=O)N3CCOCC3)cc2)C1c1ccc(OC)c(OC)c1 (stereo unspecified) | inactive |
| COc1cc(SC#N)ccc1N=Cc1c(C)[nH]n(-c2ccc(C)cc2)c1=O | active |
| CCOC(=O)c1ccc(NC(=O)c2ccc(NC(=O)C3CCCO3)cc2)cc1 (stereo unspecified) | inactive |

Lookup: Would you mind telling me which call this test gave `CCCc1cc(-c2n[nH]c(=S)n2Cc2ccccc2)cs1` ?
Found: active

Lookup: Then this compound: `Cc1cc(-c2csc(N)n2)c(C)n1Cc1ccccc1`
Found: inactive

Lookup: Then this compound: `CN(Cc1ccccn1)Cc1nc(-c2ccc(Cl)cc2)no1`
Found: inactive

----------
# targetUnderTest: Nuclear receptor ROR-gamma (Mus musculus)
# protocol: qHTS for inhibitors of ROR gamma transcriptional activity; note: nearly all actives have a fitted effect of over 60% in size
# measurementParameters: Drosophila S2 Gal4-RORgamma UAS-luciferase reporter, 20 h; series mostly up to 53.6 µM
Hit rate of the full screen: of about 310,000 compounds, about 17,000 (5.5%) were called active. Another 11% or so got no clear call; they are omitted. Calls follow the shape of the dose curve; as a rule, active = well fitted inhibition curve with a large enough effect; inconclusive = small, poorly fitted or top-dose-only effect, or effect the other way; inactive = no such curve, though single readings can be large or run the other way. This excerpt belongs to a sample that is enriched for actives.
Reply using exactly one outcome from active, inactive

Examples from the recorded data:
| compound | targetUnderTest | classAssignment |
| --- | --- | --- |
| COc1cccc2cc(C(=O)NCc3ccc(C)cc3)c(=N)oc12 | Nuclear receptor ROR-gamma (Mus musculus) | inactive |
| CCOC(=O)c1c(NC(=S)Nc2ccccc2)sc2c1CCN(C)C2 | Nuclear receptor ROR-gamma (Mus musculus) | inactive |
| COc1ccc2[nH]c3c(C)c4cc[n+](C)cc4c(C)c3c2c1 | Nuclear receptor ROR-gamma (Mus musculus) | inactive |
| O=c1nc(N/N=C/c2ccco2)cn[nH]1 | Nuclear receptor ROR-gamma (Mus musculus) | inactive |
| COc1ccc2[nH]c(=S)cc(C)c2c1 | Nuclear receptor ROR-gamma (Mus musculus) | active |
| COc1ccc(CN2C(=O)C(C)S/C2=N/N=C/c2ccco2)cc1 (stereo not given) | Nuclear receptor ROR-gamma (Mus musculus) | inactive |

Consider the additional compound presented here.
Lookup: Would you mind telling me which call this test gave C=CCN1C(=O)C(Cc2cccc(Cl)c2)S/C1=N/N=C/c1ccco1 (stereo not given) ?
Found: inactive
